Experiment: Photophysical characterization (absorbance, extinction coefficient, emission, quantum yield)
Assay type: physicochemical
Conditions: Table 4, in water; relative to 9,10-diphenyl anthracene (excited at 340 nm)
Marks after values point to notes of the source that are not given here.
endpoint-label: Φ

chemical-structure | Φ
Cc1cc(=O)oc2ccc3[nH]ccc3c12 | 0.18 ± 0.05^a
Cc1cc(=O)oc2cc(-c3ccc4[nH]ccc4c3)ccc12 | 0.00329 ± 0.00008^a
Cc1cc(=O)oc2ccc3cc[nH]c3c12 | 0.0531 ± 0.0001^a

We now examine a further compound.
Requested field: Φ. Item: "O=c1ccc2cc3[nH]ccc3cc2o1"
0.0082 ± 0.0004^a

====

Assay: Photophysical characterization (absorbance, extinction coefficient, emission, quantum yield)
Type: physicochemical
Conditions: Table 4 indoles, in water; first λmax column
endpoint-label: λmax (nm)
// units = nm; emit number, no label

chemical-structure | experimental-value
O=c1ccc2c(ccc3[nH]ccc32)o1 | 355
Cc1cc(=O)oc2ccc3[nH]ccc3c12 | 349
Cc1cc(=O)oc2ccc3cc[nH]c3c12 | 330

Requested field: λmax (nm). Item: "O=c1ccc2cc3[nH]ccc3cc2o1"
335

Requested field: λmax (nm). Item: "O=c1oc2c3c4c(cc2cc1-c1ccc2[nH]ccc2c1)CCCN4CCC3"
388

Requested field: λmax (nm). Item: "O=c1oc2c3c4c(cc2c(C(F)(F)F)c1-c1ccc2[nH]ccc2c1)CCCN4CCC3"
439

Requested field: λmax (nm). Item: "CCN(CC)c1ccc2cc(-c3ccc4[nH]ccc4c3)c(=O)oc2c1"
401

Requested field: λmax (nm). Item: "CCN(CC)c1ccc2c(C)c(-c3ccc4cc[nH]c4c3)c(=O)oc2c1"
399

Requested field: λmax (nm). Item: "Cc1cc(=O)oc2cc(-c3ccc4[nH]ccc4c3)ccc12"
339

====

Experiment: Photophysical characterization (absorbance, extinction coefficient, emission, quantum yield)
Format: physicochemical
Details: Table 4 indoles, in water; second λmax
# λmax (nm) values compiled below
// units = nm; emit number, no label

Example molecules with recorded λmax (nm):
chemical-structure | endpoint-label | experimental-value
CCN(CC)c1ccc2cc(-c3ccc4[nH]ccc4c3)c(=O)oc2c1 | λmax (nm) | 477
Cc1cc(=O)oc2cc(-c3ccc4[nH]ccc4c3)ccc12 | λmax (nm) | 445
Cc1cc(=O)oc2ccc3[nH]ccc3c12 | λmax (nm) | 492
O=c1ccc2cc3[nH]ccc3cc2o1 | λmax (nm) | 524

Requested field: λmax (nm). Item: "Cc1cc(=O)oc2ccc3cc[nH]c3c12"
488

Requested field: λmax (nm). Item: "CCN(CC)c1ccc2c(C)c(-c3ccc4cc[nH]c4c3)c(=O)oc2c1"
484

Requested field: λmax (nm). Item: "O=c1oc2c3c4c(cc2cc1-c1ccc2[nH]ccc2c1)CCCN4CCC3"
501

Requested field: λmax (nm). Item: "O=c1ccc2c(ccc3[nH]ccc32)o1"
517

Requested field: λmax (nm). Item: "O=c1oc2c3c4c(cc2c(C(F)(F)F)c1-c1ccc2[nH]ccc2c1)CCCN4CCC3"
557

====

# ε (M^−1cm^−1) values compiled below
Assay: Photophysical characterization (absorbance, extinction coefficient, emission, quantum yield)
Type: physicochemical
Details: Table 3 hydroxyl-amine probes, in water

chemical-structure | ε (M^−1cm^−1)
Nc1ccc2oc(=O)ccc2c1CCO | 3,400 ± 500 M^−1cm^−1
Cc1c(-c2ccc(N)c(CCO)c2)c(=O)oc2c3c4c(cc12)CCCN4CCC3 | 21,000 ± 2,000 M^−1cm^−1

Requested field: ε (M^−1cm^−1). Item: "Nc1c(CCO)ccc2oc(=O)ccc12"
13,000 ± 3,000 M^−1cm^−1

Requested field: ε (M^−1cm^−1). Item: "CCN(CC)c1ccc2c(C)c(-c3ccc(N)c(CCO)c3)c(=O)oc2c1"
15,000 ± 1,000 M^−1cm^−1
